tested-target: Na^+,K^+ -ATPase (Homo sapiens, UniProt P05023)
Construct: Na^+,K^+ -ATPase receptor purified according to Jorghensen; from tissue
method-summary: inhibition of the activity of the purified Na+,K+-ATPase (% hydrolysis of 32P-ATP)
Format: biochemical
settings: 32P-ATP hydrolysis, purified Na+,K+-ATPase; read-out: Inhibitory Activity log IC50 (converted)
Give measured IC50 for each item. Keep answers brief.
One number for each entry, in µM.

Would you mind giving IC50 for every compound in the list below?
1. Cc1ccc([C@H]2CC[C@]3(C)[C@@H](/C=N/OCCN(C)C)CC[C@]3(O)C2)cc1
2. CN(C)CCO/N=C/[C@H]1CC[C@]2(O)C[C@@H](c3ccccc3)CC[C@]12C
3. CN(C)CCO/N=C/[C@H]1CC[C@]2(O)C[C@@H](c3ccc(CO)cc3)CC[C@]12C

## Output
[50.1, 39.8, 50.1]
